Test system E. coli Vogel, log10 of MIC listed for each of the molecules.
Scale: decimal log of MIC, MIC in mg/L.

Answered examples (4):
CC(=O)N[C@H](C)C(=O)Nc1ccc(-c2ncc(C(=O)N[C@@H](C(=O)N[C@@H]3C(=O)N4C(C(=O)O)=C(COC(N)=O)CS[C@H]34)c3ccccc3)c(O)n2)cc1	1.10
C[C@@H](N)C(=O)Nc1ccc(-c2ncc(C(=O)N[C@@H](C(=O)NC3C(=O)N4C(C(=O)O)=C(CSc5nnnn5CC(=O)O)CSC34)c3ccccc3)c(O)n2)cc1 (some centres unmarked)	-0.10
CC(=O)NCCCC(=O)Nc1ccc(-c2ncc(C(=O)N[C@@H](C(=O)NC3C(=O)N4C(C(=O)O)=C(CSc5nnnn5C)CSC34)c3ccccc3)c(O)n2)cc1 (some centres unmarked)	0.20
CC(=O)N[C@@H](C)C(=O)Nc1ccc(-c2ncc(C(=O)N[C@@H](C(=O)NC3C(=O)N4C(C(=O)O)=C(CSc5nnnn5C)CSC34)c3ccccc3)c(O)n2)cc1 (some centres unmarked)	0.49

Switching to the query record.
If you can, please state the reported log10 of MIC value of CC(=O)N[C@@H](C(=O)Nc1ccc(-c2ncc(C(=O)N[C@@H](C(=O)N[C@@H]3C(=O)N4C(C(=O)O)=C(COC(C)=O)CS[C@H]34)c3ccccc3)c(O)n2)cc1)C(C)C . 0.80
